# Assayed system: VEGFR-2 (Homo sapiens)
# Construct: assess the effect of our new ureas on these two proteins only on the HT-29 cancer cell line through the use of flow cytometry; endogenous in cells; host or cells: HT-29
# Sequence (P35968 20-1356): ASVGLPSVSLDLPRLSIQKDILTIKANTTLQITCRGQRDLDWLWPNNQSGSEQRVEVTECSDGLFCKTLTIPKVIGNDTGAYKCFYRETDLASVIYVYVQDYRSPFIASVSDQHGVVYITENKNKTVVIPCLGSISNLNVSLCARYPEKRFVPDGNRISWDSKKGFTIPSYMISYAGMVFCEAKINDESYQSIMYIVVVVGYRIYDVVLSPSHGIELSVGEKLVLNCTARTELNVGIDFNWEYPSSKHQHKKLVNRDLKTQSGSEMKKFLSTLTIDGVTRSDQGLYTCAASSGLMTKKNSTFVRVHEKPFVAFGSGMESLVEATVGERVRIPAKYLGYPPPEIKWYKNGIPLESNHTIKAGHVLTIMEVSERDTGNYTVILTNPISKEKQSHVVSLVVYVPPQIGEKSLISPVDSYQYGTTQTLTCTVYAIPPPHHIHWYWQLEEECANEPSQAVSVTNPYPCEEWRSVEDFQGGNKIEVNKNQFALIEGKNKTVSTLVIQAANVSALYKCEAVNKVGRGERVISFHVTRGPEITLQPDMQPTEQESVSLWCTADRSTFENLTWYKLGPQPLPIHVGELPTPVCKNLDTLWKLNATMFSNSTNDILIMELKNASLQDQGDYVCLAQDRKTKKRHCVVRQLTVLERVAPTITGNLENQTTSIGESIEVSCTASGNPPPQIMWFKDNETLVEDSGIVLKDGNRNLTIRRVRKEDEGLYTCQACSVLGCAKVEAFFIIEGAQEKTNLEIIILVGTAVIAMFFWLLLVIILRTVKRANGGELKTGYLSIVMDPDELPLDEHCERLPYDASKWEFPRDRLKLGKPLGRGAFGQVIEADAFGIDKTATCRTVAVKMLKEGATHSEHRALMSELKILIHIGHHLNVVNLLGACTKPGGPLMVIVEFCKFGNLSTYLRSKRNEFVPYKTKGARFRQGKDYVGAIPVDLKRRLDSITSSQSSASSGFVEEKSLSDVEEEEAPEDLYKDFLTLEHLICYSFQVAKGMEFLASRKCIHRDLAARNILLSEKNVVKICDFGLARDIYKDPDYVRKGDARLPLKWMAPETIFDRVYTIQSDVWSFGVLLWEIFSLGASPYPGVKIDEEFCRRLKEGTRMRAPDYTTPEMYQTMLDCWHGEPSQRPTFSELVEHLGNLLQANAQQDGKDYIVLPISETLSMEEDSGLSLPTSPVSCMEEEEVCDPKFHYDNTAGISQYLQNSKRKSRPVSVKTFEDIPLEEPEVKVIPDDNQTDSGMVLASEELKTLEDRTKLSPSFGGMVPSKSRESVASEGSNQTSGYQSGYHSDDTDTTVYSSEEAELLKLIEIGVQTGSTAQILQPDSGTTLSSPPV
# Assay procedure: VEGFR-2 relative quantification by flow cytometry in HT-29 cells
# Format: cell-based
# Protocol conditions: HT-29 cells, 20 μM, 24 h, relative to DMSO control = 100
Decision: total VEGFR-2 (%) expression >= 50% yields criterion met, all other cases yield criterion not met.

| Molecule | Assayed system | Category |
| --- | --- | --- |
| COc1ccc(CCCc2cccc(NC(=O)Nc3ccc(OC)cc3)c2)cc1 [C.12] | VEGFR-2 (Homo sapiens) | criterion not met |
| Cc1c(COc2ccc(CN3CCCCC3C(=O)O)cc2Br)cccc1-c1ccccc1 (centres unmarked) [BMS-8, reference compound] | VEGFR-2 (Homo sapiens) | criterion met |
| COc1ccc(CCCc2cccc(NC(=O)Nc3ccccc3OC)c2)cc1 [C.14] | VEGFR-2 (Homo sapiens) | criterion met |
| COc1ccc(CCCc2cccc(NC(=O)Nc3ccc(F)cc3)c2)cc1 [C.3] | VEGFR-2 (Homo sapiens) | criterion not met |

====

Below is a list of entries, each paired with its recorded melting point value.

| Compound | melting point |
| --- | --- |
| COc1ccc(CCCc2cccc(NC(=O)Nc3cccc(Cl)c3)c2)cc1 [C.7] | 143 to 147 °C |
| COc1ccc(CCCc2cccc(NC(=O)Nc3cccc(OC)c3)c2)cc1 [C.13] | 107 to 110 °C |
| COc1ccc(CCCc2cccc(NC(=O)Nc3ccc(F)cc3)c2)cc1 [C.3] | 181 to 183 °C |
| COc1ccc(CCCc2cccc(NC(=O)Nc3ccc(OC)cc3)c2)cc1 [C.12] | 181 to 183 °C |
| COc1ccc(CCCc2cccc(NC(=O)Nc3ccccc3F)c2)cc1 [C.5] | 152 °C |
| COc1ccc(CCCc2cccc(NC(=O)Oc3ccccc3)c2)cc1 [C.1] | 89 to 91 °C |
| COc1ccc(CCCc2cccc(NC(=O)Nc3cccc(F)c3)c2)cc1 [C.4] | 154 °C |
| COc1ccc(CCCc2cccc(NC(=O)Nc3cccc(Br)c3)c2)cc1 [C.10] | 141 to 144 °C |
| COc1ccc(CCCc2cccc(NC(=O)Nc3ccccc3Cl)c2)cc1 [C.8] | 134 to 136 °C |
| COc1ccc(CCCc2cccc(NC(=O)Nc3ccc(Cl)cc3)c2)cc1 [C.6] | 179 to 182 °C |
| COc1ccc(CCCc2cccc(NC(=O)Nc3ccccc3OC)c2)cc1 [C.14] | 82 to 85 °C |
| COc1ccc(CCCc2cccc(NC(=O)Nc3ccccc3)c2)cc1 [C.2] | 157 to 159 °C |
| COc1ccc(CCCc2cccc(NC(=O)Nc3ccccc3Br)c2)cc1 [C.11] | 137 to 140 °C |

====

Below is a list of entries, each paired with its recorded total PD-L1 (%) expression value.
# Assayed system: PD-L1 (Homo sapiens, UniProt Q9NZQ7)
# Construct: assess the effect of our new ureas on these two proteins only on the HT-29 cancer cell line through the use of flow cytometry; endogenous in cells; host or cells: HT-29
# Sequence (Q9NZQ7 19-290): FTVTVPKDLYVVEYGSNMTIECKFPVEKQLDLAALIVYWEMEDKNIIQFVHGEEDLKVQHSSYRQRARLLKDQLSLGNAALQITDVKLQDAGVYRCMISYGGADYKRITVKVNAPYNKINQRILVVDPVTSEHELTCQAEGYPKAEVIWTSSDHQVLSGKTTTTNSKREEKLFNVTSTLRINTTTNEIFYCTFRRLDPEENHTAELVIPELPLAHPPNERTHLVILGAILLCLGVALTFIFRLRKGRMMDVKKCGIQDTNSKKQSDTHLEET
# Assay procedure: PD-L1 relative quantification by flow cytometry in HT-29 cells
# Format: cell-based
# Protocol conditions: HT-29 cells, 20 μM, 24 h, relative to DMSO control = 100
Readout kind: total PD-L1 (%) expression

| Molecule | Assayed system | Readout kind | Result |
| --- | --- | --- | --- |
| COc1ccc(CCCc2cccc(NC(=O)Nc3ccc(F)cc3)c2)cc1 | PD-L1 (Homo sapiens, UniProt Q9NZQ7) | total PD-L1 (%) expression | 70 ± 4% |
| CNC(=O)c1cc(Oc2ccc(NC(=O)Nc3ccc(Cl)c(C(F)(F)F)c3)cc2)ccn1 [Sorafenib, sorafenib, reference compound] | PD-L1 (Homo sapiens, UniProt Q9NZQ7) | total PD-L1 (%) expression | 96 ± 49% |
| COc1ccc(CCCc2cccc(NC(=O)Nc3ccccc3OC)c2)cc1 | PD-L1 (Homo sapiens, UniProt Q9NZQ7) | total PD-L1 (%) expression | 45 ± 11% |
| COc1ccc(CCCc2cccc(NC(=O)Nc3ccc(OC)cc3)c2)cc1 | PD-L1 (Homo sapiens, UniProt Q9NZQ7) | total PD-L1 (%) expression | 25 ± 5% |
| Cc1c(COc2ccc(CN3CCCCC3C(=O)O)cc2Br)cccc1-c1ccccc1 (stereo not drawn) [BMS-8, reference compound] | PD-L1 (Homo sapiens, UniProt Q9NZQ7) | total PD-L1 (%) expression | 82 ± 21% |
| COc1ccc(CCCc2cccc(NC(=O)Oc3ccccc3)c2)cc1 | PD-L1 (Homo sapiens, UniProt Q9NZQ7) | total PD-L1 (%) expression | 70 ± 16% |
